# System: M14
# assay remarks: NCI tumour cell line growth inhibition, 48 h
Calls of active or inactive are those of the source. Rule as the data show it: active = GI50 up to about 1.1 µM and inactive = higher.
value type: GI50

Here is how some compounds turned out for GI50.
>>> reported_measurement("O=CC(O)C(O)C(O)C(O)COC(=O)NCCCCC(=O)C(F)(F)C(F)(F)C(F)(F)C(F)(F)C(F)(F)C(F)(F)C(F)(F)F (configuration not stated)")
"23.7 µM (inactive)"
>>> reported_measurement("CSc1nc(SC)c2c(C(N)=S)n[nH]c2n1")
"31.9 µM (inactive)"

Query string: Look at this compound and give its reported GI50. CCOC(=O)C1(O)C(=O)C2=C3C(=O)OC(C4OC(=O)c5c(c(O)c(O)c(O)c5C31)-c1c(cc(O)c(O)c1O)C(=O)OC1COC(=O)c3cc(O)c(O)c(O)c3-c3c(cc(O)c(O)c3O)C(=O)OC14)[C@@H]2O (some centres not stated)
Result string: 21.8 µM (inactive)

Query string: Then what about the compound "COc1cc(/C=C2\N=C(c3ccccc3)N(c3cc4cc(Sc5ccccc5)ccc4[nH]3)C2=O)cc(OC)c1OC" ?
Result string: 11.4 µM (inactive)

Query string: Same question for "COC(=O)c1ccc(Nc2nc3[nH]cnc3c(=O)[nH]2)cc1" please.
Result string: 59.2 µM (inactive)

Query string: Next up: "COc1ccc2nc(-c3ccccn3)cc(O)c2c1"
Result string: 24.2 µM (inactive)

Query string: // same read-out, input: "CCCCCCCCCC[C@H](O)[C@H]1CC[C@H]([C@H]2CC[C@H]([C@H](O)CC[C@H](O)CCCCCCC[C@@H](O)CC3=C[C@H](C)OC3=O)O2)O1"
Result string: 46.9 µM (inactive)

----------
# Test system: OVCAR-8
# assay remarks: NCI tumour cell line growth inhibition, 48 h
Active and inactive are the calls of the source. Cut-off read from the data, not from the text of the source: active = GI50 up to about 1.1 µM and inactive = higher.
value type: GI50

Some solved entries appear below for comparison.
>>> reported_measurement("CCNC(=S)/N=c1\\sc(NCC)nc2sc3c(c12)CCN(N1CCc2c(sc4nc(NCC)s/c(=N\\C(=S)NCC)c24)C1)C3")
"60.4 µM (inactive)"
>>> reported_measurement("COc1nc(C)nc2c1ncn2Cc1ccccc1")
"> 100 µM (inactive)"
>>> reported_measurement("CCOC12SC(Nc3ccc(C)cc3)=NN1C(=S)N(C)N=C2C (stereo not given)")
"> 100 µM (inactive)"
>>> reported_measurement("COc1ccccc1[C@@H]1CCC2CC[C@@H](c3ccccc3OC)[N+]21Cc1ccccc1 (stereo not given in full)")
"1.27 µM (inactive)"
>>> reported_measurement("COc1cc(/C=C2\\CCC(C)/C(=C\\c3cc(OC)c(OC)c(OC)c3)C2=O)cc(OC)c1OC (stereo not given)")
"2.4 µM (inactive)"
>>> reported_measurement("COc1cc(C2c3c(ccc4ccccc34)C(=O)C3CCC(=O)N32)cc(OC)c1OC (stereo not given)")
"> 50 µM (inactive)"
>>> reported_measurement("Cc1ccc(-c2cn3c(nc4ccccc43)c(-c3ccccc3)n2)cc1")
"27.9 µM (inactive)"
>>> reported_measurement("CCN(CC)C(=O)CC12CCCCC1=Nc1ccccc12 (stereo not given)")
"> 100 µM (inactive)"
>>> reported_measurement("Cn1c(=O)c(-c2ccccc2)c(N=[N+]=[N-])c2ccccc21")
"49.3 µM (inactive)"

Query string: Looking for the measured GI50 of "O=[N+]([O-])c1ccc(Oc2c(Cl)cc(S(=O)(=O)N/C(=N\O)Nc3ccc(Cl)cc3)cc2Cl)c(Cl)c1" , can you help?
Result string: 22.8 µM (inactive)

----------
# Tested on: SNB-19
# assay remarks: NCI tumour cell line growth inhibition, 48 h
Active and inactive are the calls of the source. No stated cut-off is given here; in the data, active = GI50 up to about 1.1 µM and inactive = higher.
GI50 reference

Sample answers from the record:
>>> reported_measurement("CCOC(=O)/C(=C\\NC(N)=S)C(=O)c1ccccc1")
"> 100 µM (inactive)"
>>> reported_measurement("COc1ccc(/C=C2\\CCc3cc(OC)c(OC)cc3C2=O)cc1")
"> 10 µM (inactive)"

Query string: Query GI50 on SNB-19 for CCN1CCC(O)(/C=C/c2ccc(OC)cc2)C(C(=O)/C=C/c2ccc(OC)cc2)C1 (stereo not given)
Result string: 15.1 µM (inactive)

----------
# Test system: SF-539
# assay remarks: NCI tumour cell line growth inhibition, 48 h
Calls of active or inactive are those of the source. No stated cut-off is given here; in the data, active = GI50 up to about 1.1 µM and inactive = higher.
Below: a set of entries, each annotated with reported GI50.

Solved cases (4 shown):
>>> reported_measurement("COc1ccc(/C=C2\\CCc3cc(OC)c(OC)cc3C2=O)cc1")
"> 10 µM (inactive)"
>>> reported_measurement("O=C(CC1(O)C(=O)Nc2c(Cl)cc(Cl)cc21)c1ccc([N+](=O)[O-])cc1 (stereo not given)")
"> 46.7 µM (inactive)"
>>> reported_measurement("CC(O)C(CO)NC(=O)C1CSSCC(NC(=O)C(N)Cc2ccccc2)C(=O)NC(Cc2ccccc2)C(=O)NC(Cc2c[nH]c3ccccc23)C(=O)NC(CCCCN)C(=O)NC(C(C)O)C(=O)N1 (stereo not given)")
"> 100 µM (inactive)"
>>> reported_measurement("O=C(N/N=C\\c1ccc(Cl)cc1)Nc1cccc2ccccc12")
"5.41 µM (inactive)"

Query molecule follows.
Query string: Request: GI50, test system SF-539, entry "COc1nc(C)nc2c1ncn2Cc1ccccc1"
Result string: > 100 µM (inactive)

----------
# Test system: A498
# assay remarks: NCI tumour cell line growth inhibition, 48 h
Active and inactive are the calls of the source. Cut-off read from the data, not from the text of the source: active = GI50 up to about 1.1 µM and inactive = higher.
Response enum: T = active, F = inactive

>>> assigned_category("N#CCCC1(CCC#N)CCCCCCCCC(CCC#N)(CCC#N)C(O)C1O (stereo not given)")
"F"

Query string: Identify the outcome logged in this assay for the compound shown: COc1ccc(C(=O)CC(c2ccccc2)[C@H]2C(c3ccc(OC)cc3)=Nc3c(nc(SC)n(C)c3=O)NC2c2ccccc2)cc1 (stereo not given in full)
Result string: F

Query string: O=CC(O)C(O)C(O)C(O)COC(=O)NCCCCC(=O)C(F)(F)C(F)(F)C(F)(F)C(F)(F)C(F)(F)C(F)(F)C(F)(F)F (stereo not given) ?
Result string: F

Query string: Param item: O=C1C2Cc3ccccc3CN2C(=O)N1CCN1CCOCC1 (stereo not given)
Result string: F

Query string: And the next one, "CCCCCCCCCCCCCCCCCCOc1ccc(/C=C/C2=[N+](CCCl)CCO2)cc1" ?
Result string: F

Query string: Param item: "O=C1C(c2c(O)[nH]c3ccc(Br)cc23)=Nc2ccc(Br)cc21"
Result string: F

Query string: Here is the next compound: "COc1nc(C)nc2c1ncn2Cc1ccccc1"
Result string: F

Query string: Same question, "CNC(=S)Nc1sc2c(c1C#N)CCCC2" this time
Result string: F

Query string: Same again, this time with "Cc1ccc(-c2cn3c(nc4ccccc43)c(-c3ccccc3)n2)cc1"
Result string: F

Query string: "COc1cc(/C=C2\N=C(c3ccccc3)N(c3nc4ccc(Sc5ccccc5)cc4[nH]3)C2=O)cc(OC)c1OC" ?
Result string: F

Query string: Query CC1=C(C(=O)CC(=O)C(=O)NC2C3CC4CC(C3)CC2C4)Sc2ccccc2N1 (stereo not given) next
Result string: F

Query string: Next entry: "O=C(COC(=O)c1cccc2c(=O)c3ccccc3[nH]c12)Nc1ccccc1"
Result string: F

Query string: Subsequent entry: CC(=O)OCC1OC(n2c3c(c(-c4ccco4)c(C#N)c2=S)CCCC3)C(OC(C)=O)C(OC(C)=O)C1OC(C)=O (stereo not given)
Result string: F

Query string: Queued: "C/C(CC(=O)Nc1ccc(Cl)c(Cl)c1)=N/NC(=O)C[N+](C)(C)C"
Result string: F

Query string: Then what about the compound COc1ccc(OC2(c3cc(OC)ccc3OC)OC(=O)c3ccccc32)cc1 (stereo not given) ?
Result string: F

Query string: What do we get for "C=CCOC(=O)Cn1ccc(=O)[nH]c1=O" ?
Result string: F

----------
# System: DU-145
# assay remarks: NCI tumour cell line growth inhibition, 48 h
Activity calls are given as the source filed them. No stated cut-off is given here; in the data, active = GI50 up to about 1.1 µM and inactive = higher.
Just give me one of these, please: Y (active), N (inactive)

Check out these entries, answers already filled in.
>>> assigned_category("CCCCCCCCCc1nn2c(Cc3ccccc3)nnc2s1")
"N"
>>> assigned_category("COc1ccc2nc3ccccc3c(NCCCCCN(CCCl)CCCl)c2c1")
"Y"
>>> assigned_category("COc1cc(/C=C2\\CCC(C)/C(=C\\c3cc(OC)c(OC)c(OC)c3)C2=O)cc(OC)c1OC (stereo unspecified)")
"N"

Query string: What was the test verdict on "CNC(=S)Nc1sc2c(c1C#N)CCCC2" ?
Result string: N

Query string: Subsequent entry: "CC1(C)OC[C@H](COCOP2(=O)Oc3ccc4ccccc4c3-c3c(ccc4ccccc34)O2)O1"
Result string: N

Query string: Next record, please: "CCCCN(CCCC)CC(=O)c1ccc2cc(Cl)c3ccccc3c2c1"
Result string: N

Query string: Next up: "CCN(CC)CCCNc1nncc2cc3c([nH]c4ccccc43)c(C)c12"
Result string: N

Query string: Let us now turn to "CC(C)n1c2c([n+](C)c1/C=C/c1ccccc1)C(=O)c1ccccc1C2=O"
Result string: Y
